system: MDA-MB-435; test: NCI tumour cell line growth inhibition, 48 h

| molecule | tgt | TGI |
| --- | --- | --- |
| Cc1coc2c1C(OC(=O)C(C)C)C1(C)C(C)CCC(O)C1C2=O (stereo not drawn) | MDA-MB-435 | > 100 µM |
| CCOC(=O)C(NC(=O)OC(C)(C)C)C(=O)OCC | MDA-MB-435 | > 100 µM |
| CC(=O)/C(=C/N1CCNC1=S)C(=O)Nc1ccccc1C | MDA-MB-435 | > 100 µM |

###

Each entry below lists one item and its recorded TGI value.
test system: SR leukemia; assay: NCI tumour cell line growth inhibition, 48 h

| compound | TGI |
| --- | --- |
| O=C(O)c1cc2ccccc2c2c1C(=O)c1ccccc1-2 | > 100 µM |
| Cc1ccc([N+](=O)[O-])c2c(NCC(O)CO)ccnc12 (stereo not drawn) | > 100 µM |
| O=S1Nc2c(Cl)cc(Cl)c(Cl)c2S1 (stereo not drawn) | > 100 µM |
| Cc1ccc(-c2cc(O)c(-c3ccc(C)cc3C)cc2O)c(C)c1 | 74.9 µM |
| Oc1ccc(N=Nc2ccccn2)c(O)c1 | > 100 µM |
| COc1ccc(-c2nn(-c3ccc(NC(=O)Nc4ccc(Cl)c(C(F)(F)F)c4)cc3)cc2-c2ccncc2)cc1Cl | 5.96 µM |
| Cc1sc2nc3n(c(=O)c2c1C)N=CN(c1ccc(F)cc1)C3 | > 100 µM |
| C[C@@H]1COCCN1c1cc(C2(O)C[C@H]3CC[C@@H](C2)O3)c2cnn(-c3ccn[nH]3)c2n1 (stereo partly drawn) | 26.9 µM |
| CCN(CC)c1ccc(/C=C/C=C2\NC(=O)NC2=O)cc1 | > 100 µM |
| CCC(NC1=NCCO1)c1cccs1 (stereo not drawn) | > 100 µM |
| CC1(C)N=C(c2ccccn2)C(c2ccccn2)=NC1(C)C | > 100 µM |
| OC1C[C@H](c2ccccc2)C2(C(O)c3ccccc3C2O)[C@@H](c2ccccc2)C1 (stereo partly drawn) | 68.1 µM |
| C[C@@H](Nc1nc(Nc2ccc(F)c(Cl)c2)nc2ccccc12)C1CC1 | 5.26 µM |

###

Each record here notes measured TGI.
tested on: OVCAR-3 ovarian; test: NCI tumour cell line growth inhibition, 48 h
parameter-measured: TGI

| molecule | reported-result |
| --- | --- |
| Brc1cc2c(cc1Br)CN(c1ccccc1)C2 | > 100 µM |
| CC1(C)CCc2c(c(N=Nc3ccc(F)cc3)c3ccccc3c2O)O1 | 70.8 µM |
| CC1=NN(c2nc(N)nc(/C=C\c3ccc([N+](=O)[O-])s3)n2)C(C)(C)C1 | > 100 µM |
| Cc1ccc([N+](=O)[O-])c2c(NCC(O)CO)ccnc12 (stereo unspecified) | > 100 µM |
| CCC[C@@H]1C(=O)N=C(N)N1C(=O)OCc1ccccc1 | > 100 µM |
| O=C(O)c1cc2ccccc2c2c1C(=O)c1ccccc1-2 | > 100 µM |
| CC(C)=CCCC(C)C1=C(O)C(=O)C(C)=CC1=O (stereo unspecified) | 18.3 µM |
| COc1cc(NC(=O)C2=C(N3CCOCC3)/C(=C/c3ccc(Cl)cc3)CC2)cc(OC)c1OC | > 100 µM |
| O=[N+]([O-])C(Cl)=C/C(=C(\Cl)SCc1ccccc1)[N+](=O)[O-] | 32 µM |
| O=C(O)C(Oc1nc(=S)[nH]c(=S)[nH]1)(c1ccc(Cl)cc1)c1ccc(Cl)cc1 | > 100 µM |
| CN1C/C(=C\C=C\c2ccccc2)C(=O)/C(=C/C=C/c2ccccc2)C1 | > 100 µM |

###

test system: MOLT-4 leukemia; assay: NCI tumour cell line growth inhibition, 48 h
TGI listing for selected compounds.
parameter-measured: TGI

| compound | parameter-measured | reported-result |
| --- | --- | --- |
| O=C(CCC(=O)C1CCC/C1=N/O)Nc1ccc(Cl)cc1 (stereo unspecified) | TGI | > 100 µM |
| CCSc1ccc(C2C(Br)C(=O)N2c2cc(OC)c(OC)c(OC)c2)cc1 (stereo unspecified) | TGI | 88.9 µM |
| Cc1ccc(C(=O)CC2=Nc3nnc(CCCCCCCc4nnc5n4C(=O)C(CC(=O)c4ccc(C)cc4)=N5)n3C2=O)cc1 | TGI | > 100 µM |
| CC#Cc1nc(Nc2cc(C)[nH]n2)c2ccccc2n1 | TGI | > 100 µM |
| Cn1cc(C2=C(N3CCOCC3)C(=O)NC2=O)c2ccccc21 | TGI | > 25 µM |
| CCCCNC(=O)/N=C/c1c(O)c2ccccc2oc1=O | TGI | > 100 µM |
| C=C1C(=O)O[C@H]2[C@H]1CC/C(COC(=O)NCc1ccc(Cn3c(=O)sn(-c4ccccc4)c3=O)cc1)=C\CC[C@@]1(C)O[C@@H]21 | TGI | 7.09 µM |
| Oc1ccc(Cl)cc1C1=NC(/N=C\c2ccccc2)=NC(c2ccccc2)C1 (stereo unspecified) | TGI | > 100 µM |
| CC(=O)[CH-]C(C)=O.CC(=O)[CH-]C(C)=O.CC[O-].CC[O-].[Ti+4] | TGI | > 100 µM |
| O=C(CC/C(CC(=O)c1ccc(Br)cc1)=N\O)Nc1ccc(Cl)c(Cl)c1 | TGI | > 100 µM |
| O=C(O)C(Oc1nc(=S)[nH]c(=S)[nH]1)(c1ccc(Cl)cc1)c1ccc(Cl)cc1 | TGI | > 100 µM |
| CCCC(=O)[O-].N.N.N.N.N.[Co+3].[O-][Cl+3]([O-])([O-])[O-] | TGI | > 100 µM |
| C=C(C(=O)O[C@H]1C(=O)C2=C(C)CCC3C(=C)C(=O)O[C@@H]3C2[C@]1(C)O)C1CC[C@]2(C)CCCC(=C)[C@H]2C1 (stereo partly specified) | TGI | 5.38 µM |
| Cn1c(O)c(C=Nc2ccccc2Cl)c(=O)n(C)c1=O | TGI | 61.5 µM |
| COc1ccc(C(=O)/C=C/c2cc(O)c(O)cc2F)c(OC)c1 | TGI | 45.1 µM |
| CCN(CC)c1ccc(/C=C/C=C2\NC(=O)NC2=O)cc1 | TGI | > 100 µM |
| C[C@@H](Nc1nc(Nc2ccc(F)c(Cl)c2)nc2ccccc12)C1CC1 | TGI | 5.38 µM |
| O=C1C(Cl)=C(Nc2cccc(O)c2)C(=O)N1Cc1ccc(Cl)cc1Cl | TGI | 19.2 µM |
| CCOC(=O)/C=C(\C(=O)OCC)n1ccc(=O)[nH]c1=O | TGI | 12.4 µM |
| Cc1cc(I)cc(CN(C)CCCN2CCN(C)CC2)c1O | TGI | > 63.8 µM |
| Cc1ccc(N=C2C(=Nc3ccc(C)cc3)N(c3ccc(C)cc3)C(=S)N2C(=O)c2ccccc2)cc1 | TGI | > 100 µM |
| O=C(CCc1ccc(O)cc1)N/N=C/c1cc(Br)ccc1O | TGI | 11.2 µM |
| Brc1cc2c(cc1Br)CN(c1ccccc1)C2 | TGI | > 100 µM |
| CC1(C)N=C(c2ccccn2)C(c2ccccn2)=NC1(C)C | TGI | > 100 µM |
| Cc1c([N+](=O)[O-])oc2ccc3ccccc3c12 | TGI | > 100 µM |
| COc1cc(Br)c(CC2C3=C(CCN2C(=O)C2CCC2)CC(=O)CC3)cc1O (stereo unspecified) | TGI | > 100 µM |
| Cc1cc(Nc2cc(N)ncn2)c(=O)n2c1C(=O)NC21CCCCC1 | TGI | > 100 µM |
| C/C=N\N1C(=O)c2ccccc2C1=O | TGI | > 100 µM |
| O=c1ccc2ccc(O)cc2o1 | TGI | > 100 µM |
| CCN(c1cc(C#CCN2CCOCC2)cc(C(=O)NCc2c(C)cc(C)[nH]c2=O)c1C)C1CCC(N(C)CCOC)CC1 (stereo unspecified) | TGI | > 100 µM |
| C=C1C(=O)OC2CC3(C)OC3CC/C(C)=C/C(OC(C)=O)C12 (stereo unspecified) | TGI | 13.9 µM |

###

tested on: EKVX NSCLC; assay: NCI tumour cell line growth inhibition, 48 h
parameter-measured: TGI

| molecule | reported-result |
| --- | --- |
| Oc1c(CN2CCN(c3ccccc3)CC2)cc(Br)c2cccnc12 | > 29.3 µM |
| [N-]=[N+]=Nc1c([N+](=O)[O-])c(=O)n2c3c(cccc13)CCC2 | 41.8 µM |
| OCCN1CCN(CC/C=C2/c3ccccc3Sc3ccc(Cl)cc32)CC1 | 31.3 µM |
| O=C(CCCCC(=O)N/N=C\c1ccccc1O)N/N=C\c1ccccc1O | > 100 µM |
| O=Nc1c(-c2c(O)[nH]c3ccc(Br)cc23)[nH]c2ccccc12 | 15.5 µM |
| CCCC(=O)[O-].N.N.N.N.N.[Co+3].[O-][Cl+3]([O-])([O-])[O-] | > 100 µM |
| O=C(CSc1nc2ccccc2c(=O)n1-c1ccccc1)N=Nc1c(O)[nH]c2ccc(F)cc12 | 5.57 µM |
| CC(C)=CC(=O)Cc1nc2ccc([N+](=O)[O-])cc2[nH]c1=O | > 100 µM |
| COc1ccc(C2=NN=C3C(c4ccccc4)=Nc4ccccc4N3C2)cc1 | > 100 µM |
| C=CC(C)(C)C(=C)C(=O)Nc1ccccc1I | > 100 µM |
| NC(CSSCC(N)Cc1ccccc1)Cc1ccccc1 (stereo not drawn) | > 100 µM |
| O=[N+]([O-])c1cccc2nccc(NCCCO)c12 | 23.2 µM |
| COc1cc(NC(=O)C2=C(N3CCOCC3)/C(=C/c3ccc(Cl)cc3)CC2)cc(OC)c1OC | > 100 µM |
